Readings of kon for the listed binders
- target.system: T1, His-tagged CEACAM1 (human, UniProt P13688 35-428)
- T1 construct: 45 kDa SPR analyte; also called CEACAM1-HIS; CEACAM1 analyte
- T1 sequence: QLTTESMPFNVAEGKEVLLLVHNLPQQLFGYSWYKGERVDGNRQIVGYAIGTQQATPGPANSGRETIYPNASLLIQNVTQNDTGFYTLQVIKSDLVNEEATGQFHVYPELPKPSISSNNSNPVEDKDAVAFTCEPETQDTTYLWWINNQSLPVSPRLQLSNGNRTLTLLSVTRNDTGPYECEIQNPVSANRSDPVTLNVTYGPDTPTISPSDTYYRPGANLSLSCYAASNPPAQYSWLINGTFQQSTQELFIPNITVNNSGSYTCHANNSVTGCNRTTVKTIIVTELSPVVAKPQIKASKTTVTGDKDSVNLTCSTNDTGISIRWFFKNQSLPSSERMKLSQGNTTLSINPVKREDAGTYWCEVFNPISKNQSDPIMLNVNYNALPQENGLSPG
- assay.comment: SPR single-cycle, supernatant IgG captured
Give the number; M⁻¹ s⁻¹ is assumed, so skip it.

Solved entries:
[
  {
    "binder": "CP08B01/Vκ8 S29A (antibody, IgG4, V domains shown, IgG4 (S241P), kappa) VH: EVQLLESGGGLVQPGGSLRLSCAASGFTFSAHAMSWVRQAPGKGLEWVATISSGGTYTYYPDSVKGRFTISRDNSKNTLYLQMNSLKAEDTAMYYCARHDFDYDAAWFAYWGQGTLVTVSS VL: EIVLTQSPATLSLSPGERATLSCRANSAVSYMYWYQQKPGQAPRPWIYLTSNRATGVPARFSGSGSGTDYTLTISSLEPEDFAVYYCQQWSSNPPTFGQGTKLEIK",
    "kon [M⁻¹ s⁻¹]": 72000
  },
  {
    "binder": "CP09B02/Vκ8 S29A (antibody, IgG4, V domains shown, IgG4 (S241P), kappa) VH: EVQLLESGGGLVQPGGSLRLSCAASGFTFTSHAISWVRQAPGKGLEWVATISSGGTYTYYPDSVKGRFTISRDNSKNTLYLQMNSLKAEDTAMYYCARHDFDYDAAWFAYWGQGTLVTVSS VL: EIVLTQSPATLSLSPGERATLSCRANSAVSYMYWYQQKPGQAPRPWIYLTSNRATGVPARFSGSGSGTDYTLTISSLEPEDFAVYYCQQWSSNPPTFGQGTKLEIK",
    "kon [M⁻¹ s⁻¹]": 120000
  },
  {
    "binder": "VH1/CP08G01 (antibody, IgG4, V domains shown, IgG4 (S241P), kappa) VH: EVQLLESGGGLVQPGGSLRLSCAASGFIFSSHGMSWVRQAPGKGLEWVATISSGGTYTYYPDSVKGRFTISRDNSKNTLYLQMNSLKAEDTAMYYCARHDFDYDAAWFAYWGQGTLVTVSS VL: EIVLTQSPATLSLSPGERATLSCRANSAVSYMYWYQQKPGQAPRPWIYLTSNRATGVPARFSGSGSGTDYTLTISSLEPEDFAVYYCQQNTNLPFTFGQGTKLEIK",
    "kon [M⁻¹ s⁻¹]": 120000
  },
  {
    "binder": "CP08B11/Vκ8 S29A (antibody, IgG4, V domains shown, IgG4 (S241P), kappa) VH: EVQLLESGGGLVQPGGSLRLSCAASGFTFTNHGMSWVRQAPGKGLEWVATISSGGTYTYYPDSVKGRFTISRDNSKNTLYLQMNSLKAEDTAMYYCARHDFDYDAAWFAYWGQGTLVTVSS VL: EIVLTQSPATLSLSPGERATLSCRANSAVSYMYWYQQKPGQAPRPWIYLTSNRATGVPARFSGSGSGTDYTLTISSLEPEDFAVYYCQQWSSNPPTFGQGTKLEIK",
    "kon [M⁻¹ s⁻¹]": 96000
  }
]

Now for the binder whose kon we want.
// query Requested field: kon. Item: CP08D01/Vκ8 S29A (antibody, IgG4, V domains shown, IgG4 (S241P), kappa) VH: EVQLLESGGGLVQPGGSLRLSCAASGFTFNAHGMSWVRQAPGKGLEWVATISSGGTYTYYPDSVKGRFTISRDNSKNTLYLQMNSLKAEDTAMYYCARHDFDYDAAWFAYWGQGTLVTVSS VL: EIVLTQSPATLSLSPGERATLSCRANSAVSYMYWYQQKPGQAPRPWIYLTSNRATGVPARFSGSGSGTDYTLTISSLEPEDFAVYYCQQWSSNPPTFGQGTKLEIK
// result 140000

Cited source: patent US20250074980A1
